experiment: HT29 colon tumor cell growth inhibition, primary screen, imaging, high content imaging, 48 h, CellTiter-Glo (AID 771); settings: HCS imaging cell count, at 10 µM
About 55 (2%) of roughly 3,300 compounds were called active.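 Rule for the calls: active = growth inhibition above 90%, meaning viable cell count by imaging cut by more than 90% versus vehicle controls; inactive = growth inhibition below 90%.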 What follows is part of a selection rich in actives, with near analogues and random picks from the rest.
Possible outcomes: class 1 = active, class 0 = inactive

- Cc1ccc2[nH]c3c(N4CCOCC4)ncnc3c2c1: class 0
- c1ccc(CN2CCN(c3ncnc4c3[nH]c3ccccc34)CC2)cc1: class 0
- CN1CCN(CCCN2c3ccccc3Sc3ccc(Cl)cc32)CC1: class 0
- Fc1ccc2[nH]c3c(N4CCN(Cc5ccc6c(c5)OCO6)CC4)ncnc3c2c1: class 1
- c1ccc2c(c1)[nH]c1c(N3CCN(C4CCCCC4)CC3)ncnc12: class 0
- c1ccc2c(c1)[nH]c1c(N3CCSCC3)ncnc12: class 0
- COc1cccc(N2CCN(c3ncnc4c3[nH]c3ccc(F)cc34)CC2C)c1 (centres undefined): class 1
- Nc1ccc(Cl)cc1/C(=N/O)c1ccccc1: class 0
- CCCCOc1cccc(-c2nnc(N)s2)c1: class 0
- CCOc1ccc(C2C(C#N)=C(N)SC(N)=C2C#N)cc1OC: class 0
- CCOc1ccc(Cn2c(O)cc(=O)[nH]c2=O)cc1: class 0
- COc1ccc2[nH]c3c(N4CCN(Cc5ccc6c(c5)OCO6)CC4)ncnc3c2c1: class 0
- CN1CCN(CCCN2c3ccccc3Sc3ccc(C(F)(F)F)cc32)CC1: class 1
- OCCNc1ncnc2c1c(-c1ccccc1)c(-c1ccccc1)n2Cc1ccco1: class 0
- Cc1[nH]c2ccc(F)cc2c(=O)c1SC(F)(F)C(F)C(F)(F)F (centres undefined): class 0
- CN1CCN(CCC(=O)N2c3ccccc3Sc3ccc(Cl)cc32)CC1: class 0
- Cc1cccc(OCC(=O)N2CCC(N3CCOCC3)CC2)c1: class 0
- CC(COc1ccccc1)NC(C)C(O)c1ccc(O)cc1 (centres undefined): class 0
- Cc1ccc2[nH]c3c(N4CCCCCC4)ncnc3c2c1: class 1
- Cc1ccc2[nH]c3c(N4CCN(Cc5ccc6c(c5)OCO6)CC4)ncnc3c2c1: class 1
- COC(=O)CSc1nc2sc3c(c2c(=O)n1C1CCCCC1)CCN(C)C3: class 0
- Fc1ccc2[nH]c3c(N4CCN(c5ccccc5)CC4)ncnc3c2c1: class 0
- CCCc1cc(NCCCCO)n2c(nc3ccccc32)c1C#N: class 0
- CC(NCCC(c1ccccc1)c1ccccc1)c1ccccc1 (centres undefined): class 1
